Reference source for all entries: ChEMBL document CHEMBL4699517

- assay text: Toxicity in NOD/SCID mouse assessed as animal death rate at 5 mg/kg, ip dosed 3 times per week and measured after 24 days of treatment
- Type: organism-based
- test conditions: in vivo, time 24 day, read-out: Activity
measure name: mortality at 576 h (%)

line notation	obs value
COC(=O)[C@@]12OC[C@]34[C@H]([C@@H](O)[C@@H]1O)[C@@]1(C)CC(=O)C(O)=C(C)[C@@H]1C[C@H]3OC(=O)[C@H](OC(=O)C=C(C)C)[C@@H]24	25

###

- measured on: Phosphatidylinositol 4,5-bisphosphate 3-kinase catalytic subunit gamma isoform (Homo sapiens)
- assay text: Inhibition of PI3Kgamma in human Raji cells assessed as inhibition of cell viability at 100 nM after 72 hrs by CellTiter-Glo luminescence assay
- Type: cell-based
Calls of active or inactive are those of the source. The rule behind the calls is not given here.

compound	inhibition
COC(=O)[C@@]12OC[C@]34[C@H]([C@@H](O)[C@@H]1O)[C@@]1(C)CC(=O)C(OC(=O)C[C@H](C)NC(=O)OC(C)(C)C)=C(C)[C@@H]1C[C@H]3OC(=O)[C@H](OC(=O)C=C(C)C)[C@@H]24	inactive
COC(=O)[C@@]12OC[C@]34[C@H]([C@@H](O)[C@@H]1O)[C@@]1(C)CC(=O)C(OC(=O)CN)=C(C)[C@@H]1C[C@H]3OC(=O)[C@H](OC(=O)C=C(C)C)[C@@H]24	Active
COC(=O)[C@@]12OC[C@]34[C@H]([C@@H](O)[C@@H]1O)[C@@]1(C)CC(=O)C(OC(=O)[C@@H]5CCCN5C(=O)OC(C)(C)C)=C(C)[C@@H]1C[C@H]3OC(=O)[C@H](OC(=O)C=C(C)C)[C@@H]24	Active
COC(=O)[C@@]12OC[C@]34[C@H]([C@@H](O)[C@@H]1O)[C@@]1(C)CC(=O)C(OC(=O)[C@@H]5CC(F)(F)CN5)=C(C)[C@@H]1C[C@H]3OC(=O)[C@H](OC(=O)C=C(C)C)[C@@H]24	Active
CC[C@H](C)[C@H](NC(=O)OC(C)(C)C)C(=O)OC1=C(C)[C@@H]2C[C@H]3OC(=O)[C@H](OC(=O)C=C(C)C)[C@H]4[C@]5(C(=O)OC)OC[C@]34[C@H]([C@@H](O)[C@@H]5O)[C@@]2(C)CC1=O	inactive
COC(=O)[C@@]12OC[C@]34[C@H]([C@@H](O)[C@@H]1O)[C@@]1(C)CC(=O)C(OCC(=O)NC(C)(C)C)=C(C)[C@@H]1C[C@H]3OC(=O)[C@H](OC(=O)C=C(C)C)[C@@H]24	inactive
COC(=O)[C@@]12OC[C@]34[C@H]([C@@H](O)[C@@H]1O)[C@@]1(C)CC(=O)C(O)=C(C)[C@@H]1C[C@H]3OC(=O)[C@H](OC(=O)C=C(C)C)[C@@H]24	Active
COC(=O)[C@@]12OC[C@]34[C@H]([C@@H](O)[C@@H]1O)[C@@]1(C)CC(=O)C(OC(=O)[C@@H](C)N)=C(C)[C@@H]1C[C@H]3OC(=O)[C@H](OC(=O)C=C(C)C)[C@@H]24	Active
COC(=O)[C@@]12OC[C@]34[C@H]([C@@H](O)[C@@H]1O)[C@@]1(C)CC(=O)C(OC(=O)C[C@@H](C)N)=C(C)[C@@H]1C[C@H]3OC(=O)[C@H](OC(=O)C=C(C)C)[C@@H]24	Active
COC(=O)[C@@]12OC[C@]34[C@H]([C@@H](O)[C@@H]1O)[C@@]1(C)CC(=O)C(OCC(=O)NC(Cc5ccccc5)C(=O)OC(C)(C)C)=C(C)[C@@H]1C[C@H]3OC(=O)[C@H](OC(=O)C=C(C)C)[C@@H]24 (stereo not given in full)	inactive
